biological target: Muscarinic acetylcholine receptor M1 (Rattus norvegicus); details: Cervical ganglion
Description: Central postsynaptic muscarinic activity was measured by slow depolarization of the rat cervical ganglion in M1 model
Respond with MET for pD2 values of 6 and above, NOT MET for values below.

>>> df
                                    compound  classification
 0                     O=C1CCCN1CC#CCN1CCCC1             MET
 1           CC[C@H]1C(=S)SC[C@@H]1Cc1cncn1C         NOT MET
 2           CC[C@H]1C(=O)SC[C@@H]1Cc1cncn1C         NOT MET
 3          CC[C@@H]1C(=O)SC[C@@H]1Cc1cncn1C             MET
 4       CC1OCC(CN(C)C)O1 (stereo not drawn)             MET
 5  CC[C@H]1C(O)SC[C@@H]1Cc1cncn1C (stereo partly drawn)         NOT MET
 6              CC[C@@H]1COC[C@@H]1Cc1cncn1C         NOT MET
 7      C[C@@H]1O[C@H](C[N+](C)(C)C)C[C@H]1O             MET
 8       CC[C@@H]1C(=O)N(C)C[C@@H]1Cc1cncn1C             MET
 9          CC[C@@H]1C(=O)NC[C@@H]1Cc1cncn1C         NOT MET
10           CC[C@H]1C(=O)NC[C@@H]1Cc1cncn1C         NOT MET
11                    Cc1ccc(C[N+](C)(C)C)o1             MET
12  CC[C@@H]1C(O)SC[C@@H]1Cc1cncn1C (stereo partly drawn)         NOT MET

----------
Target: UniProt:P08482
Sequence (whole entry): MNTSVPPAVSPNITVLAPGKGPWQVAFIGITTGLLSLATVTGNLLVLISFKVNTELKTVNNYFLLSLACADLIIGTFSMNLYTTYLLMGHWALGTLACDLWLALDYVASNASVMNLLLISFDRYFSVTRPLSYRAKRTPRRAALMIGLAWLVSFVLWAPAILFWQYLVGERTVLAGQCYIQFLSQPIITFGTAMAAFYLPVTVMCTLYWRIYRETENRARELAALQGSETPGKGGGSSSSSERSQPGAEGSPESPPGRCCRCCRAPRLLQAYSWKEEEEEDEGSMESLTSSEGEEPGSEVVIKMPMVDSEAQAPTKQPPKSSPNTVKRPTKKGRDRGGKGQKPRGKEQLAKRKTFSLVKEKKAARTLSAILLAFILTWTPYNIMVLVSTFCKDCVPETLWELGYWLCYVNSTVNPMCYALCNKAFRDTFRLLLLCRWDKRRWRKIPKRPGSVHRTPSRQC
Details: Cervical ganglion
Reported property: pD2

In [3]: df
Out[3]:
                                compound  value_reported
0            CCN1C(=O)OC[C@@H]1Cc1cncn1C             6.1
1  Cn1cncc1C[C@H]1COC(=O)C1 [PILOSININE]             4.2
2     CC[C@H]1C(=O)N(C)C[C@@H]1Cc1cncn1C             4.4
3                   C[N+](C)(C)CCOC(N)=O             7.2

----------
target: Muscarinic acetylcholine receptor M1 (Rattus norvegicus); settings: Hippocampus
Description: Neuronal postsynaptic muscarinic activity was measured by firing rate of the rat hippocampal CA1 neurons in M1 model
Using pD2 as the sorting value, the categories are one = under 5, two = from 5 up to 6, three = 6 and over

                                    compound  classification
 0      CC1OCC(CN(C)C)O1 (centres undefined)           three
 1              CC[C@@H]1COC[C@@H]1Cc1cncn1C             one
 2  CC[C@@H]1C(O)SC[C@@H]1Cc1cncn1C (some centres undefined)             one
 3  CC[C@H]1C(O)SC[C@@H]1Cc1cncn1C (some centres undefined)             one
 4          CC[C@@H]1C(=O)NC[C@@H]1Cc1cncn1C             one
 5        CC[C@H]1C(=O)N(C)C[C@@H]1Cc1cncn1C             one
 6           CC[C@H]1C(=O)NC[C@@H]1Cc1cncn1C             one
 7               CCN1C(=O)OC[C@@H]1Cc1cncn1C             two
 8                     O=C1CCCN1CC#CCN1CCCC1           three
 9           CC[C@H]1C(=O)SC[C@@H]1Cc1cncn1C             two
10          CC[C@@H]1C(=O)SC[C@@H]1Cc1cncn1C             two
11                    Cc1ccc(C[N+](C)(C)C)o1             two

----------
biological target: Muscarinic acetylcholine receptor M1 (Rattus norvegicus, UniProt P08482)
pIC50: −log10 of the molar value.
Reported property: pIC50

In [3]: df
Out[3]:
                                   compound  reported_property  value_reported
0  CC[C@@H]1C(O)SC[C@@H]1Cc1cncn1C (some centres not stated)              pIC50            6.16
1               CCN1C(=O)OC[C@@H]1Cc1cncn1C              pIC50            6.54
2          CC[C@@H]1C(=O)NC[C@@H]1Cc1cncn1C              pIC50            5.29
3           CC[C@H]1C(=S)SC[C@@H]1Cc1cncn1C              pIC50            7.29
4      O=C1CCCN1CC#CCN1CCCC1 [OXOTREMORINE]              pIC50            6.95
5       CC[C@@H]1C(=O)N(C)C[C@@H]1Cc1cncn1C              pIC50            4.99
6                    Cc1ccc(C[N+](C)(C)C)o1              pIC50            5.85

----------
Recorded IC50 for the following compounds
molecular target: Muscarinic acetylcholine receptor M1 (Rattus norvegicus, UniProt P08482)
Reported property: IC50

>>> df
                                   compound  reported_property  value_reported
0          CC[C@@H]1C(=O)SC[C@@H]1Cc1cncn1C               IC50          435 nM
1       CC1OCC(CN(C)C)O1 (stereo not drawn)               IC50         2100 nM
2  CC[C@H]1C(O)SC[C@@H]1Cc1cncn1C (stereo partly drawn)               IC50          285 nM
3                  Cn1cncc1C[C@H]1COC(=O)C1               IC50        10000 nM
4           CC[C@H]1C(=O)NC[C@@H]1Cc1cncn1C               IC50         9950 nM
5              CC[C@@H]1COC[C@@H]1Cc1cncn1C               IC50         1800 nM
6        CC[C@H]1C(=O)N(C)C[C@@H]1Cc1cncn1C               IC50        10000 nM
7           CC[C@H]1C(=O)SC[C@@H]1Cc1cncn1C               IC50          775 nM

----------
target: UniProt:Q8VH26; settings: Ileum
Sequence (Q8VH26 1-587): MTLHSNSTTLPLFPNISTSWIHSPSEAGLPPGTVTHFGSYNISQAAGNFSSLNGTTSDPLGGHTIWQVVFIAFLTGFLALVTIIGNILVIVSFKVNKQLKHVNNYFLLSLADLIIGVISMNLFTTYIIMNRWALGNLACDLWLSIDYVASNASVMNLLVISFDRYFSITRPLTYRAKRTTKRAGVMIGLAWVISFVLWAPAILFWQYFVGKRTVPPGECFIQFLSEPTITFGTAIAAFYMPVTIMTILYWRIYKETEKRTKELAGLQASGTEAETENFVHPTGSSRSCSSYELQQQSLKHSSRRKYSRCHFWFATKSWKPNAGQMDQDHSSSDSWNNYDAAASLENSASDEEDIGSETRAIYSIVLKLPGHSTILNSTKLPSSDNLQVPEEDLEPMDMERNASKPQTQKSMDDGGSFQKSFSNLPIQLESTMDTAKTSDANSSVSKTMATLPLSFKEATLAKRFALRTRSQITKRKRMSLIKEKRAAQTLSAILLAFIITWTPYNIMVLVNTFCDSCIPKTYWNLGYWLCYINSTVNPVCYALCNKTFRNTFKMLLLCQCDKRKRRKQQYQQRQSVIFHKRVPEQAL
Description: Peripheral postsynaptic muscarinic activity by contraction of the guinea pig ileum.
Respond with YES for pD2 values of 5 and above, NO for values below.

>>> df
                                    molecule  classification
 0              CC[C@@H]1COC[C@@H]1Cc1cncn1C              NO
 1     CC1OCC(CN(C)C)O1 (stereo unspecified)             YES
 2           CC[C@H]1C(=O)SC[C@@H]1Cc1cncn1C              NO
 3      O=C1CCCN1CC#CCN1CCCC1 [OXOTREMORINE]             YES
 4  CC[C@H]1C(O)SC[C@@H]1Cc1cncn1C (stereo partly specified)              NO
 5                      C[N+](C)(C)CCOC(N)=O             YES
 6           CC[C@H]1C(=S)SC[C@@H]1Cc1cncn1C             YES
 7     Cn1cncc1C[C@H]1COC(=O)C1 [PILOSININE]              NO
 8          CC[C@@H]1C(=O)SC[C@@H]1Cc1cncn1C             YES
 9        CC[C@H]1C(=O)N(C)C[C@@H]1Cc1cncn1C              NO
10          CC[C@@H]1C(=O)NC[C@@H]1Cc1cncn1C              NO
11               CCN1C(=O)OC[C@@H]1Cc1cncn1C             YES
12           CC[C@H]1C(=O)NC[C@@H]1Cc1cncn1C              NO
13      C[C@@H]1O[C@H](C[N+](C)(C)C)C[C@H]1O             YES
14  CC[C@@H]1C(O)SC[C@@H]1Cc1cncn1C (stereo partly specified)              NO
15       CC[C@@H]1C(=O)N(C)C[C@@H]1Cc1cncn1C              NO
